study.system: recombinant GSK3β kinase (Homo sapiens (Human))
Sequence (P49841 whole entry): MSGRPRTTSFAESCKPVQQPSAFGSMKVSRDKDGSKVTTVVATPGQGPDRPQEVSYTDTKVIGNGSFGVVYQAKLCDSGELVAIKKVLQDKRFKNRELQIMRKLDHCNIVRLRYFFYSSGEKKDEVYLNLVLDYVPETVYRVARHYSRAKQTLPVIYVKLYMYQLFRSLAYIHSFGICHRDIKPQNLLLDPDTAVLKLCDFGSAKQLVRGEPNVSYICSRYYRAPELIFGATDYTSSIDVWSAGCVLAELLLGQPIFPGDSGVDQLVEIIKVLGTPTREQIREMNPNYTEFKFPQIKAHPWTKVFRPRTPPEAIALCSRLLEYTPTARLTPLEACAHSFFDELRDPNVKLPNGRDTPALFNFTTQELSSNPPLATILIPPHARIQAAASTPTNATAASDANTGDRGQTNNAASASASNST
experiment.summary: GSK3β kinase assay (Ser/Thr 09 peptide Z-lyte FRET);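 also: kinase activity read as coumarin to fluorescein emission ratio, 11-point threefold dilutions from 10 µM to 0.0003 µM in duplicate, unphosphorylated and phosphorylated peptide as 0% and 100% controls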
assay.context: 46 μM ATP, 1 h room temperature
Classify: Fulfilled when EC50 is strictly less than 70 nM; Not fulfilled when EC50 is not.

> print(dat)
                                 test.smiles   answer.label
 1  Cc1nnc(-c2ccc3cnc(NC(=O)CN4CCCC4)cc3c2)s1      Fulfilled
 2  C[C@H](F)CN1CCC(C(=O)Nc2cc3cc(-c4cnn(C)c4)ccc3cn2)CC1      Fulfilled
 3  CN1CC2(CC(C(=O)Nc3cc4cc(-c5cnn(C)c5)ccc4cn3)C2)C1      Fulfilled
 4  C[C@@H](F)CN1CCC(C(=O)Nc2cc3cc(-c4cnn(C)c4)ccc3cn2)CC1      Fulfilled
 5  Cn1cc(-c2ccc3cnc(NC(=O)[C@H]4CCCN4)cc3c2)cn1      Fulfilled
 6  Cc1ncc(-c2ccc3cnc(NC(=O)C4CCCCC4)cc3c2)n1C  Not fulfilled
 7     Cn1cncc1-c1ccc2cnc(NC(=O)C3CNC3)cc2c1  Not fulfilled
 8  Cn1cc(-c2cc(F)c3cnc(NC(=O)C4CCNCC4)cc3c2)cn1  Not fulfilled
 9  Cn1cc(-c2ccc3cnc(NC(=O)CN4CCC(C(F)F)CC4)cc3c2)cn1      Fulfilled
10  Cn1ncc(-c2ccc3cnc(NC(=O)C4CCOCC4)cc3c2)c1CN1CCCCC1      Fulfilled
11  Cn1cc(-c2ccc3cnc(NC(=O)C4CCN(C5CCOCC5)CC4)cc3c2)cn1      Fulfilled
12   CC(C)OCCC(=O)Nc1cc2cc(-c3cncn3C)ccc2cn1      Fulfilled
13  CN1CCN(C(=O)Nc2cc3cc(-c4cnn(C)c4)ccc3cn2)CC1  Not fulfilled
14   Cn1cc(-c2ccc3cnc(NC(=O)C4CNC4)cc3c2)cn1      Fulfilled
15  O=C(Nc1cc2cc(-c3cnco3)ccc2cn1)[C@H]1CC[C@@H](N2CCOCC2)CC1  Not fulfilled
16  Cn1cc(-c2ccc3cnc(NC(=O)[C@@H]4CCCNC4)cc3c2)cn1      Fulfilled
17  CN1CCC(N2CCC(C(=O)Nc3cc4cc(-c5cncs5)ccc4cn3)CC2)CC1      Fulfilled
